The measurements presented in this section are drawn from patent US12390441B2.

tested on: TNF-α; test: Whole blood assay, LPS stimulation, MSD cytokine detection; assay type: cell-based; conditions: fresh whole bovine blood
quantity.measured: IC50
Dear colleague, please send the value followed by its unit.

Param item = CCCNC[C@]1(O)[C@H](C)O[C@@H](O[C@H]2[C@H](C)[C@@H](O[C@@H]3O[C@H](C)C[C@H](NC)[C@H]3Oc3cccc(F)c3)[C@](C)(O)C[C@@H](C)CN[C@H](C)[C@@H](O)[C@](C)(O)[C@@H](CC)OC(=O)[C@@H]2C)C[C@@]1(C)OC ; retrieve measured IC50.
15 µM

I'd like to know its IC50. The molecule in question is CC[C@H]1OC(=O)[C@H](C)[C@@H](O[C@H]2C[C@@](C)(OC)[C@](O)(CNCCOC)[C@H](C)O2)[C@H](C)[C@@H](O[C@@H]2O[C@H](C)C[C@H](N(C)C)[C@H]2Oc2ccc(F)cc2)[C@](C)(O)C[C@@H](C)CN[C@H](C)[C@@H](O)[C@]1(C)O
5 µM

So what's the measured IC50 for this one? CC[C@H]1OC(=O)[C@H](C)[C@@H](O[C@H]2C[C@@](C)(OC)[C@@H](O)[C@H](C)O2)[C@H](C)[C@@H](O[C@@H]2O[C@H](C)C[C@H](N(C)C)[C@H]2Oc2ccc(F)cc2)[C@](C)(O)C[C@@H](C)CN(C)[C@H](C)[C@@H](O)[C@]1(C)O
5 µM

Give its IC50 value. Item: CC[C@H]1OC(=O)[C@H](C)[C@@H](O[C@H]2C[C@@](C)(OC)[C@](O)(CNCC3CC3)[C@H](C)O2)[C@H](C)[C@@H](O[C@@H]2O[C@H](C)C[C@H](NC)[C@H]2Oc2ccccc2)[C@](C)(O)C[C@@H](C)CN[C@H](C)[C@@H](O)[C@]1(C)O
31 µM

# IC50 lookup, item CC[C@H]1OC(=O)[C@H](C)[C@@H](O[C@H]2C[C@@](C)(OC)[C@@H](O)[C@H](C)O2)[C@H](C)[C@@H](O[C@@H]2O[C@H](C)C[C@H](N(C)C)[C@H]2Oc2cc(OC)ccc2OC)[C@](C)(O)C[C@@H](C)CN(C)[C@H](C)[C@@H](O)[C@]1(C)O
4 µM

I am curious: what IC50 value has been reported for CC[C@H]1OC(=O)[C@H](C)[C@@H](O[C@H]2C[C@@](C)(OC)[C@](O)(CNCCN(C)C)[C@H](C)O2)[C@H](C)[C@@H](O[C@@H]2O[C@H](C)C[C@H](NC)[C@H]2Oc2ccccc2)[C@](C)(O)C[C@@H](C)CN[C@H](C)[C@@H](O)[C@]1(C)O ?
75 µM

What value of IC50 has been reported for the following molecule? CC[C@H]1OC(=O)[C@H](C)[C@@H](O[C@H]2C[C@@](C)(OC)[C@](O)(CNn3ccnc3)[C@H](C)O2)[C@H](C)[C@@H](O[C@@H]2O[C@H](C)C[C@H](NC)[C@H]2Oc2ccccc2)[C@](C)(O)C[C@@H](C)CN[C@H](C)[C@@H](O)[C@]1(C)O
48 µM

----------
system: TNF-α; assay: Whole blood assay, LPS stimulation, MSD cytokine detection; assay type: cell-based; conditions: fresh whole bovine blood
pIC50: −log10 of the molar value.
Kind request: treat 5 as inclusive, so pIC50 at 5 or higher is class 1, anything lower is class 0.

Exam item: decide whether the reported pIC50 for CC[C@H]1OC(=O)[C@H](C)[C@@H](O[C@H]2C[C@@](C)(OC)[C@@H](O)[C@H](C)O2)[C@H](C)[C@@H](O[C@@H]2O[C@H](C)C[C@H](NC)[C@H]2Oc2cccc(S(=O)(=O)CC)c2)[C@](C)(O)C[C@@H](C)CN(C)[C@H](C)[C@@H](O)[C@]1(C)O is at least 5.
class 1

Assess whether reported pIC50 for CCCNC[C@]1(O)[C@H](C)O[C@@H](O[C@H]2[C@H](C)[C@@H](O[C@@H]3O[C@H](C)C[C@H](NC)[C@H]3Oc3cc(OC)c(OC)c(OC)c3)[C@](C)(O)C[C@@H](C)CN[C@H](C)[C@@H](O)[C@](C)(O)[C@@H](CC)OC(=O)[C@@H]2C)C[C@@]1(C)OC sits at 5 or higher.
class 0

Could you please find out whether CCOc1cccc(O[C@H]2[C@H](O[C@@H]3[C@@H](C)[C@H](O)[C@@H](C)C(=O)O[C@H](CC)[C@@](C)(O)[C@H](O)[C@@H](C)NC[C@H](C)C[C@@]3(C)O)O[C@H](C)C[C@@H]2N(C)C(=O)N(C)c2ccc(N(C)C)cc2)c1 has pIC50 that meets 5 or exceeds it?
class 1

# bool: pIC50 of CC[C@H]1OC(=O)[C@H](C)[C@@H](O)[C@H](C)[C@@H](O[C@@H]2O[C@H](C)C[C@H](N(C)C(=O)N(C)c3ccccc3)[C@H]2Oc2ccc(Cl)nc2)[C@](C)(O)C[C@@H](C)CN[C@H](C)[C@@H](O)[C@]1(C)O >= 5
class 1

Could you verify whether the entry CCCNC[C@]1(O)[C@H](C)O[C@@H](O[C@H]2[C@H](C)[C@@H](O[C@@H]3O[C@H](C)C[C@H](NC)[C@H]3Oc3ccc(OC)nc3OC)[C@](C)(O)C[C@@H](C)CN[C@H](C)[C@@H](O)[C@](C)(O)[C@@H](CC)OC(=O)[C@@H]2C)C[C@@]1(C)OC shows pIC50 of no less than 5?
class 0
